# run_description: Inhibition of PLC(C) SH2 domain binding to PDGF receptor
pIC50: −log10 of the molar value.
Reported pIC50 values for the following compounds.
reported_property: pIC50

1. CC[C@H](C)[C@H](NC(=O)[C@H](CCC(=O)O)NC(=O)[C@H](CCC(=O)O)NC(=O)C(Cc1ccc(OP(=O)(O)O)cc1)c1ccccc1)C(=O)N[C@@H](CCC(=O)O)C(=O)O (stereo in doubt): < 4.00
2. CC[C@H](C)[C@H](NC(=O)[C@H](CCC(=O)O)NC(=O)[C@H](CCC(=O)O)NC(=O)[C@@H](Cc1ccc(OP(=O)(O)O)cc1)NC(C)=O)C(=O)N[C@@H](CCC(=O)O)C(=O)O: < 4.00

---

# test_system: Proto-oncogene tyrosine-protein kinase Src (Homo sapiens)
# Sequence (P12931 2-536 limits assumed): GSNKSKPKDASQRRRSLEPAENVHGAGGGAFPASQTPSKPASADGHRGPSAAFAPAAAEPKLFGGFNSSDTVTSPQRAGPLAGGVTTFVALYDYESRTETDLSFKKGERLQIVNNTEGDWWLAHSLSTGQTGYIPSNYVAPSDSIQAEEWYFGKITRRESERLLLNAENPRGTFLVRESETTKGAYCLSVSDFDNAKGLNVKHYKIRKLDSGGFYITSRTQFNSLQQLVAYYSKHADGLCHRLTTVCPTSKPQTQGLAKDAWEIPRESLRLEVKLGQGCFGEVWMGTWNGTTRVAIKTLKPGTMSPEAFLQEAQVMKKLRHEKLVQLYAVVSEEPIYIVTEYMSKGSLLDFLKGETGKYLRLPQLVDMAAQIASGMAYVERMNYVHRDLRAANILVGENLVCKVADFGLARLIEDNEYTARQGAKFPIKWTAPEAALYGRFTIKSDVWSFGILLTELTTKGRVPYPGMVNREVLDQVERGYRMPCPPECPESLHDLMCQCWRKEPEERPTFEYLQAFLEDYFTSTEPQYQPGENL
# run_description: Binding affinity to p60 src SH2 domain.
pIC50: −log10 of the molar value.
Reported pIC50 values for the following compounds.
reported_property: pIC50

1) CC[C@H](C)[C@H](NC(=O)C(CCC(=O)O)NC(=O)C(CCC(=O)O)NC(=O)C(Cc1ccc(OP(=O)(O)O)cc1)c1cccc(O)c1)C(=O)N[C@@H](CCC(=O)O)C(=O)O (stereo in doubt): 5.48
2) CC(=O)N[C@@H](Cc1ccc(OP(=O)(O)O)cc1)C(=O)NC(CCC(=O)O)C(=O)N[C@@H](Cc1c[nH]c2ccccc12)C(N)=O (stereo not given in full): 5.40
3) CC[C@H](C)[C@H](NC(=O)[C@H](CCC(=O)O)NC(=O)[C@H](CCC(=O)O)NC(=O)C(Cc1ccc(OP(=O)(O)O)cc1)c1ccc2ccccc2c1)C(=O)N[C@@H](CCC(=O)O)C(=O)O (stereo in doubt): 5.55
4) CC[C@H](C)[C@H](NC(=O)[C@H](CCC(=O)O)NC(=O)[C@H](CCC(=O)O)NC(=O)[C@H](C)Cc1ccc(OP(=O)(O)O)cc1)C(=O)N[C@@H](CCC(=O)O)C(=O)O: 4.70
5) CC[C@H](C)[C@H](NC(=O)[C@H](CCC(=O)O)NC(=O)[C@H](CCC(=O)O)NC(=O)C(Cc1ccc(OP(=O)(O)O)cc1)c1ccccc1)C(=O)N[C@@H](CCC(=O)O)C(=O)O (single isomer, unassigned; isomer 2): 5.03
6) CC[C@H](C)[C@H](NC(=O)[C@H](CCC(=O)O)NC(=O)[C@H](CCC(=O)O)NC(=O)C(Cc1ccc(OP(=O)(O)O)cc1)c1cccc2ccccc12)C(=O)N[C@@H](CCC(=O)O)C(=O)O (stereo in doubt; form 1): 5.14
7) CC[C@H](C)[C@H](NC(=O)[C@H](CCC(=O)O)NC(=O)[C@H](CCC(=O)O)NC(=O)C(Cc1ccc(OP(=O)(O)O)cc1)c1cccc2ccccc12)C(=O)N[C@@H](CCC(=O)O)C(=O)O (stereo in doubt; form 2): 5.59
8) NC(=O)[C@H](Cc1c[nH]c2ccccc12)NC(=O)C(CCC(=O)O)NC(=O)C(Cc1ccc(OP(=O)(O)O)cc1)c1cccc2ccccc12 (stereo not given in full): 4.52
9) CC[C@H](C)[C@H](NC(=O)[C@H](CCC(=O)O)NC(=O)[C@H](CCC(=O)O)NC(=O)C(Cc1ccc(OP(=O)(O)O)cc1)c1ccccc1O)C(=O)N[C@@H](CCC(=O)O)C(=O)O (stereo not given in full): 5.85
10) NC(=O)[C@H](Cc1c[nH]c2ccccc12)NC(=O)C(CCC(=O)O)NC(=O)C(Cc1ccc(OP(=O)(O)O)cc1)c1ccc2ccccc2c1 (stereo not given in full): 4.40

---

# test_system: Proto-oncogene tyrosine-protein kinase Src (Homo sapiens)
# run_description: Binding affinity to p60 src SH2 domain.
Reported IC50 values for the following molecules.
reported_property: IC50 (µM)

1) CC[C@H](C)[C@H](NC(=O)[C@H](CCC(=O)O)NC(=O)[C@H](CCC(=O)O)NC(=O)CCc1ccc(OP(=O)(O)O)cc1)C(=O)N[C@@H](CCC(=O)O)C(=O)O: 3.4
2) CC[C@H](C)[C@H](NC(=O)[C@H](CCC(=O)O)NC(=O)[C@H](CCC(=O)O)NC(=O)CCc1c(C)cc(OP(=O)(O)O)cc1C)C(=O)N[C@@H](CCC(=O)O)C(=O)O: 4.5
3) CC[C@H](C)[C@H](NC(=O)[C@H](CCC(=O)O)NC(=O)[C@H](CCC(=O)O)NC(=O)C(Cc1ccc(OP(=O)(O)O)cc1)c1ccccc1)C(=O)N[C@@H](CCC(=O)O)C(=O)O (stereo in doubt): 1.9
4) CC[C@H](C)[C@H](NC(=O)[C@H](CCC(=O)O)NC(=O)[C@H](CCC(=O)O)NC(=O)/C=C/c1ccc(OP(=O)(O)O)cc1)C(=O)N[C@@H](CCC(=O)O)C(=O)O: 5.5
5) NC(=O)[C@H](Cc1c[nH]c2ccccc12)NC(=O)C(CCC(=O)O)NC(=O)/C=C/c1ccc(OP(=O)(O)O)cc1 (stereo partly specified): 30
6) C[C@H](Cc1ccc(OP(=O)(O)O)cc1)C(=O)NC(CCC(=O)O)C(=O)N[C@@H](Cc1c[nH]c2ccccc12)C(N)=O (stereo partly specified): 13.4

---

# test_system: Proto-oncogene tyrosine-protein kinase Src (Homo sapiens)
# run_description: Binding affinity to p60 src SH2 domain.
pIC50: −log10 of the molar value.
Hi, to clarify the labels: Fulfilled covers pIC50 from 5 upward, Not fulfilled covers anything below 5.

1. NC(=O)[C@H](Cc1c[nH]c2ccccc12)NC(=O)C(CCC(=O)O)NC(=O)CCc1ccc(OP(=O)(O)O)cc1 (some centres not stated): Not fulfilled
2. CC[C@H](C)[C@H](NC(=O)C(CCC(=O)O)NC(=O)C(CCC(=O)O)NC(=O)C(Cc1ccc(OP(=O)(O)O)cc1)c1cccc(O)c1)C(=O)N[C@@H](CCC(=O)O)C(=O)O (single isomer, unassigned; isomer 1): Fulfilled
3. NC(=O)[C@H](Cc1c[nH]c2ccccc12)NC(=O)C(CCC(=O)O)NC(=O)C(Cc1ccc(OP(=O)(O)O)cc1)c1ccccc1 (some centres not stated): Not fulfilled
4. Cc1cc(OP(=O)(O)O)cc(C)c1CCC(=O)NC(CCC(=O)O)C(=O)N[C@@H](Cc1c[nH]c2ccccc12)C(N)=O (some centres not stated): Not fulfilled
5. CC[C@H](C)[C@H](NC(=O)[C@H](CCC(=O)O)NC(=O)[C@H](CCC(=O)O)NC(=O)/C(=C/c1ccc(OP(=O)(O)O)cc1)C(=O)O)C(=O)N[C@@H](CCC(=O)O)C(=O)O: Fulfilled
6. CC[C@H](C)[C@H](NC(=O)[C@H](CCC(=O)O)NC(=O)[C@H](CCC(=O)O)NC(=O)C(Cc1ccc(OP(=O)(O)O)cc1)c1ccc2ccccc2c1)C(=O)N[C@@H](CCC(=O)O)C(=O)O (single isomer, unassigned; isomer 2): Fulfilled
7. CC[C@H](C)[C@H](NC(=O)[C@H](CCC(=O)O)NC(=O)[C@H](CCC(=O)O)NC(=O)[C@@H](CC(=O)O)Cc1ccc(OP(=O)(O)O)cc1)C(=O)N[C@@H](CCC(=O)O)C(=O)O: Fulfilled
